target_desc: T1, human CD48 (on primary human peripheral blood mononuclear cells) (human, UniProt P09326 27-220)
T1 sequence: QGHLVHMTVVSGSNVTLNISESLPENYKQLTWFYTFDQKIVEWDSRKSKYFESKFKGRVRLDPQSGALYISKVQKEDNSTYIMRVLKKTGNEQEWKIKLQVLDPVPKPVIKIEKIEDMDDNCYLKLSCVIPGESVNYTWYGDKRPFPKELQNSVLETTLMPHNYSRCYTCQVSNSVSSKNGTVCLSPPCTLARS
assay_remarks: cell-based or functional assay
Entries and their % Blockade of IFNγ release, MLR; D3

{"binder": "H4H1771P (antibody, human IgG4, V domains shown, Human IgG4 Fc (H4H)) VH: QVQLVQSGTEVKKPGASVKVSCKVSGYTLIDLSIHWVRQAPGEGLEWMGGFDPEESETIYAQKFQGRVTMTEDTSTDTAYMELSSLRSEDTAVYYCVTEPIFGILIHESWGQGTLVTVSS VL: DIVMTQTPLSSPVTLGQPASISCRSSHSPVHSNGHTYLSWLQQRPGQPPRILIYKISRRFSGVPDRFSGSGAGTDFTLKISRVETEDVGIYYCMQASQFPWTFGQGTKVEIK", "units_text": "%", "% Blockade of IFNγ release, MLR; D3": 88}
{"binder": "H4H1772P (antibody, human IgG4, V domains shown, Human IgG4 Fc (H4H)) VH: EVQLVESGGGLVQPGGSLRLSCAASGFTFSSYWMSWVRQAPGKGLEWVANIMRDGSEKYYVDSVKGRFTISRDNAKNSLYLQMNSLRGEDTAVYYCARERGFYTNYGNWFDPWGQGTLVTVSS VL: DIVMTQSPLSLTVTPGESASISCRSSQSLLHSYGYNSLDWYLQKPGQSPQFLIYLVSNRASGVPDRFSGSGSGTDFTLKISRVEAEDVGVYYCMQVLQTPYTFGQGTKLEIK", "units_text": "%", "% Blockade of IFNγ release, MLR; D3": 62}
{"binder": "H4H1763N (antibody, human IgG4, V domains shown, Human IgG4 Fc (H4H) form of 1763N) VH: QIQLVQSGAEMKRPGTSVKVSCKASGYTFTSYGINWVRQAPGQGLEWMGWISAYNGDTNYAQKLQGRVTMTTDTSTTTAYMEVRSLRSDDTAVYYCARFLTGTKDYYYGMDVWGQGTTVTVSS VL: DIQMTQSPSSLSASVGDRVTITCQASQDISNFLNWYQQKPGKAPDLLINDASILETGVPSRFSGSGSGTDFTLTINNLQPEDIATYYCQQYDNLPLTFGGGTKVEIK", "units_text": "%", "% Blockade of IFNγ release, MLR; D3": 68}
